Exercise: for every item that follows, state its recorded hERG current change (%, negative = inhibition) at 10uM.
target: human ether-à-go-go-related gene (hERG) potassium channel (human, UniProt Q12809); assay: primary screen, population patch clamp on CHO cells stably expressing hERG; higher = less effect of the substance;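 also: peak tail current of the secondary pulse compared with the same well before compound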
Sequence (Q12809 whole entry, looked up): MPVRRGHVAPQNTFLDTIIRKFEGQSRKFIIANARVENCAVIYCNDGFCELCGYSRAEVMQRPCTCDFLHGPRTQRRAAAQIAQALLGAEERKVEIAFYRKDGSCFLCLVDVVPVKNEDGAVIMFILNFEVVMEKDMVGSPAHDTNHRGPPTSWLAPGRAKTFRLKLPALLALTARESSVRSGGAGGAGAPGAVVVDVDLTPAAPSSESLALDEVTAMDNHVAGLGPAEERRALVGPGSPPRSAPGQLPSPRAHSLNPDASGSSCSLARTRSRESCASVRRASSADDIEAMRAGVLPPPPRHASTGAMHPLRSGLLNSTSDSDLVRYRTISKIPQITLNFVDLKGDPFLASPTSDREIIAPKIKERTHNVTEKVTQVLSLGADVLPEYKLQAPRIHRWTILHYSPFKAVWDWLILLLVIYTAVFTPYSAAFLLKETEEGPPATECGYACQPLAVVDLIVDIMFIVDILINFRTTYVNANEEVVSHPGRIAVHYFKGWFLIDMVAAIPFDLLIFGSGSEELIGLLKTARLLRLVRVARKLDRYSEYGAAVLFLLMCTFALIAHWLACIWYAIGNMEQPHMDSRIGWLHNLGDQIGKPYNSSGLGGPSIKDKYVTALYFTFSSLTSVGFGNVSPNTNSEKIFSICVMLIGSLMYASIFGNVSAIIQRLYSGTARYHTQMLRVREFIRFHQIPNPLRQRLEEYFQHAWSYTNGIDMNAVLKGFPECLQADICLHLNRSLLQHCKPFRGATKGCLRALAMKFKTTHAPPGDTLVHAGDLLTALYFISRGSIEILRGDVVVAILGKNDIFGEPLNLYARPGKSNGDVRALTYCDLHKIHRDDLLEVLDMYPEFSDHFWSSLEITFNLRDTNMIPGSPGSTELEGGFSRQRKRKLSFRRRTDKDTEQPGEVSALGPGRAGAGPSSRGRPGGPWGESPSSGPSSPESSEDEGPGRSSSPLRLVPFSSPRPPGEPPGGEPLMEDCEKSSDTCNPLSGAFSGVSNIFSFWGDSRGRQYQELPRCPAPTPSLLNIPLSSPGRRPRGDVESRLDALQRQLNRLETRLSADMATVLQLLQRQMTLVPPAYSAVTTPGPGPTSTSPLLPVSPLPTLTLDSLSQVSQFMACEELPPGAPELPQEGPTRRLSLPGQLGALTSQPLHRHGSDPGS
The whole screen tested about 310,000 compounds, of which about 14,000 (4.5%) showed an effect of 50% or more. The effect is printed as a negative number. Many of the other results were omitted from the sample, so strong results are more common in it than they were.
The answer is to be given in %; state only the numeric part.

Request: I would be grateful if you could share the reported hERG current change (%, negative = inhibition) at 10uM for `Cc1cc2c(=O)n(Cc3ccco3)c(SCC(=O)NCc3ccco3)nc2s1` .
Response: -35.8

Request: Further, for `O=C(Cc1ccccc1)Nc1ccc(N2CCOCC2)cc1N1CCOCC1` ?
Response: -0.646

Request: Try this molecule too: CN(C(=O)CSc1nc2cc(C(=O)O)ccc2c(=O)n1Cc1ccccc1)C1CCS(=O)(=O)C1 (centres unmarked)
Response: 37.8

Request: Please give the result for `CCc1cc2c(=O)n(Cc3ccco3)c(SCc3c(C)noc3C)nc2s1` too.
Response: -5.47

Request: Here is the next molecule: `O=C(CSCc1ccccc1)Nc1ccc2c(c1)OCO2`
Response: 7.4

Request: How about `Cc1cc(C)c(C)c(S(=O)(=O)N[C@@H](C)C(=O)OCc2cc(=O)n3cc(Br)ccc3n2)c1C` ?
Response: -47

Request: Next: `CCOc1ccc(CC(=O)OCc2cc(=O)n3cc(Br)ccc3n2)cc1`
Response: -6.01

Request: `O=C(NCc1n[nH]c(=S)n1-c1ccc(Cl)c(Cl)c1)c1ccc(S(=O)(=O)N2CCOCC2)cc1`
Response: 14.5

Request: Follow-up entry: `COc1ccc(CN2C(=O)[C@H]3Cc4c([nH]c5ccccc45)C(C)(C)N3C2=O)cc1`
Response: 7

Request: `CC(C)N(C(=O)CSc1nc2ccccc2n1Cc1ccc(F)cc1)C(C)C` , same question.
Response: -27.3

Request: Also, `O=C(NC1=NCCS1)c1ccc(Cl)c(S(=O)(=O)N2CCCCC2)c1` please.
Response: -2.52

Request: Please do the same for `Cc1ccccc1NC(=O)CCc1nnc2ccc(N3CCC4(CC3)OCCO4)nn12` as well.
Response: 8.74

Request: Quick one: `COc1ccccc1CNC(=O)CCc1nc2ccccc2c(=O)[nH]1`
Response: -1.26

Request: Moving on to `CCOc1ccc(C(=O)NCCN2CCCCC2)c(OCC)c1`
Response: -23.1

Request: Record: `O=C(NC1CC1)c1sccc1-n1cccc1`
Response: 8.56

Request: Same question, `C/C(=N\NC(=S)NC(C)C)c1ccc2c(c1)OCCO2` this time
Response: -63.6

Request: Ok, now CCOC(=O)c1ccc(NC(=O)C2C3C=CC(C3)C2C(=O)O)cc1 (centres unmarked)
Response: 4.67

Request: What about this molecule? `Cc1cc2c(=O)n(Cc3ccco3)c(SCC(=O)c3ccc(Cl)s3)nc2s1`
Response: -18.6

Request: How about this molecule: CC1(C)S[C@@H]2[C@H](NC(=O)COc3ccccc3)C(=O)N2C1C(=O)OCc1ccccc1 (some centres unmarked)
Response: -48.1

Request: # repeat for `Cc1ccc(S(=O)(=O)N2CCC(C(=O)N3CCC[C@H]3C(=O)NCC(C)C)CC2)cc1`
Response: 13.8

Request: Similarly, `Cc1c(O)ccc2c(=O)c(-c3nncn3-c3ccccc3)coc12` ?
Response: 21.2

Request: Would you kindly repeat that for `CNC(=S)N/N=C(\C)c1ccc2c(c1)OCCO2` ?
Response: 9.21

Request: Would you mind doing `Cc1ccc(NS(=O)(=O)c2ccc3c(c2)n(C)c(=O)n3C)cc1C` as well?
Response: 14.2

Request: Try the molecule CC1CC1C(=O)OCc1cc(=O)n2cc(Br)ccc2n1 (centres unmarked)
Response: -16.2

Request: Can you handle `O=C(OCC(=O)N1CCCC1)c1ccc(NS(=O)(=O)c2cccs2)cc1O` next?
Response: 17.1

Request: Moving on to the next molecule: CCc1cc2c(SCC(=O)NCC3CCCO3)ncnc2s1 (centres unmarked)
Response: -1.05

Request: Now give it for `CCc1ccc(C(=O)N/N=C/c2cccc3ccccc23)nc1` too.
Response: 1.8

Request: Now give it for `Br.COC(=O)c1ccc(CN2CCSC2=N)cc1` too.
Response: 6.85

Request: Param item: `O=C(CNS(=O)(=O)c1ccc(Br)cc1)OCc1cc(=O)n2cc(Br)ccc2n1`
Response: -26

Request: Subsequent entry: `Cn1c(=O)c2[nH]c(-c3ccccc3O)nc2n(C)c1=O`
Response: 23

Request: Same read-out for `Cc1ccc(-n2nnc3c(=O)n(CC(=O)NCc4ccccc4)cnc32)cc1` ?
Response: -15.5

Request: Next molecule: `C[C@@H](O)c1nc2ccccc2n1N`
Response: 9.12

Request: Check `C[C@H](NS(=O)(=O)c1ccc(Cl)c(Cl)c1)C(=O)OCc1cc(=O)n2cc(Br)ccc2n1` too.
Response: -63.4

Request: Would you kindly repeat that for `Cc1sc2ncnc(Sc3nnnn3-c3ccc(Cl)cc3)c2c1C` ?
Response: 11.2

Request: Also check CCc1cc2c(SCC(=O)NC3CCS(=O)(=O)C3)ncnc2s1 (centres unmarked)
Response: -1.87

Request: Then what about the molecule `CCOC(=O)c1ccc(NC(=O)Nc2ccc3c(c2)OCCO3)cc1` ?
Response: 10.6

Request: Lookup `CCNC(=S)N/N=C(\C)c1ccc2c(c1)OCCO2`
Response: 13.4

Request: Next entry: `CCOc1cc(NC(=O)c2ccccn2)c(OCC)cc1NC(=O)c1cccc(C)c1`
Response: 8.7

Request: Try this molecule next: COC(C(=O)Nc1ccc(F)c(F)c1)c1ccccc1 (centres unmarked)
Response: -13.7

Request: // next record COC(=O)C1N2C(=O)[C@@H](NC(=O)COc3ccccc3)[C@H]2SC1(C)C (some centres unmarked)
Response: -4.31

Request: Entry CC1(C(=O)OCc2cc(=O)n3cc(Br)ccc3n2)CC1(Cl)Cl (centres unmarked) please
Response: -54.3

###

Field: hERG current change (%, negative = inhibition) at 10uM. Provide a value for each of the compounds that follow.
target: human ether-à-go-go-related gene (hERG) potassium channel (human); assay: primary screen, population patch clamp on CHO cells stably expressing hERG; higher = less effect of the substance;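 also: peak tail current of the secondary pulse compared with the same well before compound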
The whole screen tested about 310,000 compounds, of which about 14,000 (4.5%) showed an effect of 50% or more. Effects have a minus sign here. Shown is part of a subset that was picked to be rich in strong results.
Record the value in %, omitting the unit from your answer.

Request: GET /values?readout=hERG current change (%, negative = inhibition) at 10uM&item= CCCCC(=O)Nc1ccc(C(=O)N2CCCC(C(=O)OCC)C2)cc1 (centres unmarked)
Response: 7.66

Request: Now this one: `NC(=O)Cn1c(=O)n(Cc2ccco2)c(=O)c2c3c(sc21)CCCCC3`
Response: 5.2

Request: What about this compound? `Cn1c(=O)n(Cc2ccco2)c(=N)c2c3c(sc21)CCCC3`
Response: -31.4

Request: Next up: `COc1ccccc1N1CCN(C(=O)c2cc(-c3cccs3)on2)CC1`
Response: -22.7

Request: Similarly, `COc1ccc(N2CCN(C(=O)c3cc(-c4ccc(F)cc4)[nH]c3C)CC2)cc1` ?
Response: -67.4

Request: Field entry: `O=C1CN=C(c2ccccc2)c2cc(Br)ccc2N1Cc1cc(=O)n2ccccc2n1`
Response: -51.7

Request: Can you check `Cn1c(=O)n(Cc2ccco2)c(=N)c2c3c(sc21)CCC3` next?
Response: -64.8

Request: What do you get for `CCOC(=O)N1CCN(C(=O)c2cc(-c3ccc(F)cc3)[nH]c2C)CC1` ?
Response: -72.3

Request: Try this compound too: `CN(C)CCCn1c(=O)n(Cc2ccco2)c(=O)c2c3c(sc21)CCCCC3`
Response: -71.1

Request: What do you have for `CCOC(=O)N1CCC(NC(=O)c2cc(-c3ccc(F)cc3)[nH]c2C)CC1` ?
Response: -0.721

Request: What would you report for `CN(C)CCn1c(=O)n(Cc2ccco2)c(=O)c2c3c(sc21)CCCCC3` ?
Response: -50.4

Request: Next record, please: `c1coc(-c2cc(C3CCNCC3)[nH]n2)c1`
Response: 15.5

Request: Repeat with `COc1ccccc1Nc1nc(-c2sc(NC(=O)CC(C)C)nc2C)cs1`
Response: 5.43

Request: `O=C(Oc1ccc(-c2nc(-c3ccccn3)no2)cc1)c1ccccc1` ?
Response: 7.73

Request: # repeat for `CC(=O)c1ccc(N(CC(=O)NC2CCCCC2)C(=O)CNC(=O)c2ccco2)cc1`
Response: -7.74

Request: Now try COc1cccc(CN(C)CC(O)COc2cc(Cl)ccc2Cl)c1.O=C(O)C(=O)O (centres unmarked) .
Response: -42

Request: Next up: `COc1cccc(N2CCN(C(=O)c3cc(C)oc3C)CC2)c1`
Response: 6.8

Request: And then `CN(C)CCn1c(=O)n(-c2ccc(F)cc2)c(=O)c2c3c(sc21)CCCCC3` , what is it?
Response: -18.6

Request: What do you get for `COc1cc(-c2nnc(-c3ccncc3)o2)ccc1OCc1ccccc1` ?
Response: 4.05

Request: // same read-out, input: `CC(=O)NNC(=O)CN1C(=O)CN=C(c2ccccc2)c2cc(Br)ccc21`
Response: 13.1
